System: PC49
Assay: qHTS profiling for inhibitors of Plasmodium falciparum proliferation (AID 504749); note: nearly all actives have a fitted effect of over 60% in size
Settings: P. falciparum in erythrocytes, SYBR Green DNA, 72 h; series mostly up to 28.7 µM
Records with an inconclusive call do not appear. Calls of active or inactive are those of the source. Calls come from the whole dose curve; as a rule, active = well fitted inhibition curve with a large enough effect; inconclusive = small, poorly fitted or top-dose-only effect; inactive = flat fitted curve, though single readings scatter.
Mark one answer only. Choices: Yes (active), No (inactive)

The examples below pair each entry with its known result.
{"molecule": "CC(c1cc2ccccc2s1)N(O)C(N)=O (stereo not given)", "group": "No"}
{"molecule": "COc1ccc2nc(S(=O)Cc3ncc(C)c(OC)c3C)[nH]c2c1 (stereo not given)", "group": "No"}
{"molecule": "Cc1oncc1C(=O)Nc1ccc(C(F)(F)F)cc1", "group": "No"}
{"molecule": "Clc1ccc(Nc2nnc(Cc3ccncc3)c3ccccc23)cc1", "group": "No"}
{"molecule": "Nc1nc2ccc(OC(F)(F)F)cc2s1", "group": "No"}

Please indicate how the test categorized Nc1ccc(S(=O)(=O)Nc2ccnn2-c2ccccc2)cc1 .
No

Please indicate how the test categorized Cc1[nH]c(=O)c(C#N)cc1-c1ccncc1 .
No

Please indicate how the test categorized O=C1CCC(N2C(=O)c3ccccc3C2=O)C(=O)N1 (stereo not given) .
No

Please indicate how the test categorized OC(CN1CCC(Cc2ccc(F)cc2)CC1)c1ccc(Cl)cc1 (stereo not given) .
Yes

###

Experiment: Identifying Small Molecule Inhibitors of Pancreatic Cancer Stem Cells (Panc1, Adherent) (AID 1259362); note: potency is the fitted concentration of half-maximal effect
Settings: viability; series mostly up to 46.1 µM
Text: Progenitor-like cancer cells, often referred to as cancer stem cells (CSC), are believed to be the drivers of therapeutic resistance and rapid recurrence. CSCs are postulated to reside in specific niches characterized by low oxygen tension, limited nutrient supply, and high redox load. Selectively targeting CSC, alone or in combination with cytotoxic agents, as a means to produce durable remissions is an appealing concept. […]
Inconclusive results are not listed. The source made the active and inactive calls. Calls come from the whole dose curve; as a rule, active = well fitted cell-killing curve with a large enough effect; inconclusive = small, poorly fitted or top-dose-only effect, or effect the other way, or another doubt; inactive = no such curve, though single readings can be large or run the other way.
parameterMeasured: Potency

# example entries with known answers
{"molecule": "CNCc1ccc(-c2[nH]c3cc(F)cc4c3c2CCNC4=O)cc1", "measured": "inactive"}
{"molecule": "NC(=O)C1CCCc2c1[nH]c1ccc(Cl)cc21 (centres undefined)", "measured": "inactive"}
{"molecule": "CCC(C)n1ncn(-c2ccc(N3CCN(c4ccc(OC[C@H]5CO[C@](Cn6cncn6)(c6ccc(Cl)cc6Cl)O5)cc4)CC3)cc2)c1=O (some centres undefined)", "measured": "inactive"}
{"molecule": "C/C(=C\\C(=O)Nc1ccccc1C(=O)O)c1ccc2ccccc2c1", "measured": "inactive"}

Please fill in: Potency reported for CCc1cc(Nc2nccc(-c3c(-c4ccc(OC)c(C(=O)Nc5c(F)cccc5F)c4)nc4ccccn34)n2)c(OC)cc1N1CCC(N2CCN(S(C)(=O)=O)CC2)CC1 = inactive

Please fill in: Potency reported for Fc1ccc(Cl)cc1-c1nc(Nc2ccncc2)c2nccnc2n1 = inactive

Please fill in: Potency reported for CCOc1ccn(-c2ccc(F)cc2)c(=O)c1C(=O)Nc1ccc(Oc2ccnc(N)c2Cl)c(F)c1 = 6620 nM (active)

Please fill in: Potency reported for COc1ccc2c3n(c(=NC(=O)c4cccnc4)nc2c1OC)CCN3 = 2350 nM (active)

Please fill in: Potency reported for CCOc1cc(C(=O)Nc2ccc(Cl)c(-c3nc4ccccc4[nH]3)c2)cc(OCC)c1OCC = inactive

Please fill in: Potency reported for CCCCCCCc1ccc(CCc2cccc(O)c2C(=O)O)cc1 = inactive

Please fill in: Potency reported for OC[C@H](Cc1ccccc1)Nc1nc(Oc2ccc3c(c2)CCC3)nc2c1ncn2Cc1ccc(-c2ccccc2)cc1 = 1320 nM (active)

Please fill in: Potency reported for O=S(=O)(N=Cc1c(O)ccc2ccccc12)c1cccs1 = inactive

Please fill in: Potency reported for CNC(=O)c1ccc(N2C(=S)N(c3ccc(C#N)c(C(F)(F)F)c3)C(=O)C2(C)C)cc1F = inactive

Please fill in: Potency reported for COc1ccc(C2=N[C@H](c3ccc(Cl)cc3)[C@H](c3ccc(Cl)cc3)N2C(=O)N2CCNC(=O)C2)c(OC(C)C)c1 = inactive
